compounds and their reported GI50
# System: SW-620
# protocol_summary: NCI tumour cell line growth inhibition, 48 h
Activity calls are given as the source filed them. Rule as the data show it: active = GI50 up to about 1.1 µM and inactive = higher.

Nc1nc(O)c2nc3c(nc2n1)C(=O)N(c1ccc(C(=O)O)cc1)C3    > 100 µM (inactive)

Quote GI50 reported for `CN(C)c1nc(N(C)C)nc(N(C)C)n1` please.
> 150 µM (inactive)

Quote GI50 reported for `COC(=O)C(CCC#N)(CCC#N)C(=O)OC` please.
> 100 µM (inactive)

Quote GI50 reported for CCOC(=O)C1=C(C)N(Cc2ccccc2)C2(O)C(OC)CC(=O)C3C(=O)N(c4ccccc4)C(=O)C132 (stereo unspecified) please.
4.93 µM (inactive)

Quote GI50 reported for `COc1cc(Br)c(/C=N/N=C(\N)NO)cc1OC` please.
35.1 µM (inactive)

Quote GI50 reported for `CCc1n[nH]c(=O)n1/N=C/c1ccc(/C=N/n2c(CC)n[nH]c2=O)cc1` please.
> 100 µM (inactive)

Quote GI50 reported for `O=c1[nH]nc(-c2ccccc2)c2[nH]c3c4ccccc4ccc3c12` please.
0.656 µM (active)

Quote GI50 reported for `CC#CS(=O)(=O)c1ccccc1` please.
3.78 µM (inactive)

Quote GI50 reported for `O=C1C=CC(=O)c2c1ccc1c3ccccc3n(-c3ccccc3[N+](=O)[O-])c21` please.
1.98 µM (inactive)

Quote GI50 reported for O=C(c1nc2ccc(Cl)cc2[nH]c1=O)C(O)c1ccco1 (stereo unspecified) please.
> 100 µM (inactive)

Quote GI50 reported for `CCOC(=O)c1cc(I)c(-c2cc(C)no2)n1C` please.
60.7 µM (inactive)
